Every entry's value here was drawn from patent US20220267462A1.

Biological target: T1, cynomolgus EpCAM protein (cynomolgus, UniProt Q1WER1 27-265 (rhesus entry), limits assumed, biotinylated in the Octet assays (site not stated))
T1 construct: also called cy EpCAM; biotinylated cynomolgus EpCAM protein
T1 sequence: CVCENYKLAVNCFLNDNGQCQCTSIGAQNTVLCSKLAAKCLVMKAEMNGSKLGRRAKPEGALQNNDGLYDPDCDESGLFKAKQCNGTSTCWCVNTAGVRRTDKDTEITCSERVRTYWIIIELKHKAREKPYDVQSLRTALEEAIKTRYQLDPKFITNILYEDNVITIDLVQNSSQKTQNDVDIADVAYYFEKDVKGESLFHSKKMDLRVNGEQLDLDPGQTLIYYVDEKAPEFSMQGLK
Assay: colorimetric ELISA
QUANTITY KIND: Cynomolgus EpCAM/Control

Use the examples below as a reference point.
BINDER	Cynomolgus EpCAM/Control
EPL138 (VHH) VHH: QVQLQESGGGLVQAGGSLRLSCAASGFIFRAASMDWYRQFPGNERESIATISSGGFTNYADSVKGRFTISRDNAKNTVYLQMNSLKPEDTAVYFCGATFLRSDGHHTINGQGTQVTVSS	3
EPL97 (VHH) VHH: QVQLQESGGGLVQAGGSLRLSCAASGIIFRGTTMGWFRQAPGKQRESVASISPLGTTSYSGSVEGRFTVSRDNAKNTLFLQMNSLKSEDTAVYYCNAIQVTNVGPRVYWGQGTQVTVSS	5
EPL15 (VHH) VHH: QVQLQESGGGSVLAGGSLRLSCAASGFTFSSYYMSWVRQAPGKGLEWVSGIHYTGDWTNYADSVKGRFTISRDNAKNELYLEMNNLKPEDTAVYYCARGSDKGQGTQVTVSS	35

a. EPL43 (VHH) VHH: QVQLQESGGGLVQTGGSLRLSCAASESISSFIAVGWYRQAPGKERELVAGINRSGFTYYTDSVKGRFSISRDNAKNTVLLQMTSLKPEDTAVYYCNAGGLYFSNAYTQGDYWGQGTQVTVSS
b. EPL49 (VHH) VHH: QVQLQESGGGLVQAGGSLRLSCAPSGRTSSIFGMGWFRQAPGKEREFVASINWSGGSTSYADSVKGRFTISRDNAKNEMYLQMNSLKFEDTAVYVCAAAVLTNKPSWNFWGQGTQVTVSS
Which record would sort first by descending Cynomolgus EpCAM/Control, a or b ? Give the label under which the chosen entry appears. a
